Target: T1, human CD3 expressed on cells (Jurkat cells; human primary T cells) (human, UniProt P07766 23-207; P04234 22-171; P09693 23-182)
T1 construct: whole, on cells
T1 sequence (P07766 23-207, chain 1 of 3): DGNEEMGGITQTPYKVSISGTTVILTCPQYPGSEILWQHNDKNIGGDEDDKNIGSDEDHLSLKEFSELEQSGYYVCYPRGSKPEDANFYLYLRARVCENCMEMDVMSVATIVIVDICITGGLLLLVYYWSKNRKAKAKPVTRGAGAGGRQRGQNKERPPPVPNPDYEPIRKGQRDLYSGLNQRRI
T1 sequence (P04234 22-171, chain 2 of 3): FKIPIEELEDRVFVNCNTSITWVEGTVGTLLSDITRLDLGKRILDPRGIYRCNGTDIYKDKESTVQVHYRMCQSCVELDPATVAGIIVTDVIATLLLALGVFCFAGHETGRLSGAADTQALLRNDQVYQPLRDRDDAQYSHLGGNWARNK
T1 sequence (P09693 23-182, chain 3 of 3): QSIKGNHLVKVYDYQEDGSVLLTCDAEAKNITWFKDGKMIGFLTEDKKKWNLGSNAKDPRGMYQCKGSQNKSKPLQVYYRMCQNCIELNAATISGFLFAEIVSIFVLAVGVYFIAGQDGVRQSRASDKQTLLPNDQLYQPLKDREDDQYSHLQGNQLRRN
Assay: flow cytometry, 25 nM, human primary T cells
reported-endpoint: Binding (FOI)
// unit must come after the numeric part

Illustrative cases are given below, each with its answer.
mAb 284 (antibody, V domains shown, VH/VL only) VH: EVQLLESGGGLVQPGGSLRLSCAASGFTFSSYAMSWVRQAPGKGLEWVSAISGSSGRTYYTDSVKGRFTISRDNSKNTLSLQMNSLRAEDTAVYYCAKKYSYYYYYMDVWGKGTTVTVSS VL: SYELTQPLSVSVALGQTAKITCGGNNIGSKNVHWYQQKPGQAPVLVIYRDSNRPSGIPERFSGSNSGNTATLTISRAQAGDEADYYCQVWDSSTAVFGGGTQLTAL | 209 FOI
mAb 286 (antibody, V domains shown, VH/VL only) VH: EVKLVESGGGVVRPGGSLRLSCAASGFTFDDYGMSWVRQAPGKGLEWVSGISWNGGSTGYADSVKGRFTISRDNAKNSLYLQMNSLRAEDTALYHCARDGVPVVKRRYYYYYMDVWGKGTTVTVSS VL: EIVLTQSPDFQSVTPKEKVTITCRASQSIGSSLHWYQQKPDQSPKLLIKYASQSFSGVPSRFSGRGSGTDFTLTINSLEAEDAATYYCHQSGSLPQTFGQGTKVEIK | 185 FOI

Data request: Name the recorded Binding (FOI) of the item mAb 229 (antibody, V domains shown, VH/VL only) VH: QEQLVESGGGVVQPGRSLRLSCAASGFTFSSYGMHWVRQAPGKGLEWVAIIYYNGKKKDYADSVKGRFTISRDNSKNTLYLQMNSLRAEDTAVYYCARGLGYNWFDPWGQGTLVTVSS VL: EIVLTQSPDFQSVTPKEKVTITCRASQSIGSSLHWYQQKPDQSPKLLIKYASQSFSGVPSRFSGSGSGTDFTLTINSLEAEDAATYYCHQSSSLPYTFGQGTKLEIK in your answer.
Data returned: 250 FOI
